- Measurement Description: chemical genetic growth profiling, strain panel (AID 1159580);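 further: tested at 20 µM; growth read once vehicle control cultures reached saturation at 30 °C; 1 = growth at the plate median or of vehicle wells; lower values mean less growth of the strain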
- Condition Info: S. cerevisiae deletion strains, growth OD, locus YHR200W, strain rpn10
The campaign covered roughly 5,500 compounds. About 2,000 (36%) were called active. Not shown: some 18% with an inconclusive outcome. No stated cut-off is given here; in the data, active means normalized growth mostly below about 0.91 (no sharp cut-off); inconclusive means no clear call, values can overlap the other calls; inactive means mostly above about 0.92. The list shows a part of the results.
Outcomes: yes (1) for active, no (0) for inactive

[
  {
    "Molecule": "Cc1oncc1C(=O)Nc1ccc(C(F)(F)F)cc1",
    "Assigned Label": "no (0)"
  },
  {
    "Molecule": "c1ccc2c(CC3=NCCN3)cccc2c1",
    "Assigned Label": "no (0)"
  },
  {
    "Molecule": "CC(=O)O[C@]1(C)CC[C@@]23CC1C(C)(C)[C@@H]2CC[C@H]3C",
    "Assigned Label": "no (0)"
  },
  {
    "Molecule": "C[C@@H]1CC[C@H]2C(C)(C)C3CC12CC[C@@]3(C)O (stereo partly specified)",
    "Assigned Label": "no (0)"
  },
  {
    "Molecule": "OC[C@H]1O[C@@H](n2cnc3c(NCc4ccco4)ncnc32)[C@H](O)[C@@H]1O",
    "Assigned Label": "no (0)"
  },
  {
    "Molecule": "CNc1ccc(C(=O)CC(O)CCC(C)C2OC(=O)CC(O)CC(=O)CC(O)CC(O)CC(O)CC(O)CC3(O)CC(O)C(C(=O)OC)C(CC(OC4OC(C)C(O)C(N)C4O)/C=C/C=C/C=C/C=C/C=C/C=C/C=C/C2C)O3)cc1 (stereo unspecified)",
    "Assigned Label": "yes (1)"
  }
]

====

- Measurement Description: chemical genetic growth profiling, strain panel (AID 1159580);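 further: tested at 20 µM; growth read once vehicle control cultures reached saturation at 30 °C; 1 = growth at the plate median or of vehicle wells; lower values mean less growth of the strain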
- Condition Info: S. cerevisiae deletion strains, growth OD, locus YOL006C, strain TOP1, hits give low values
Hit rate of the full screen: of about 5,500 compounds, about 2,000 (36%) were called active. Another 18% or so got no clear call; they are omitted. The list shows a part of the results.

[
  {
    "Compound": "FC(F)(F)Oc1ccccc1-c1nnc(-c2ccc(Cl)cc2)o1",
    "normalized growth": "0.767 (inactive)"
  },
  {
    "Compound": "C[C@]12CCC3c4ccc(OC(=O)CCC(=O)O)cc4CCC3C1CCC2=O (stereo partly drawn)",
    "normalized growth": "0.787 (inactive)"
  },
  {
    "Compound": "C[C@]12CCC3c4ccc(O)cc4CCC3C1CCC2=O (stereo partly drawn)",
    "normalized growth": "0.838 (inactive)"
  },
  {
    "Compound": "O=C(O)C1CCCNC1 (stereo not drawn)",
    "normalized growth": "1.07 (inactive)"
  },
  {
    "Compound": "Cc1nn(Cc2ccccc2Cl)c(=N)s1",
    "normalized growth": "0.939 (inactive)"
  },
  {
    "Compound": "c1ccc2c(CC3=NCCN3)cccc2c1",
    "normalized growth": "1.03 (inactive)"
  },
  {
    "Compound": "Cc1onc(-c2ccccc2)c1-c1ccc(S(N)(=O)=O)cc1",
    "normalized growth": "0.992 (inactive)"
  },
  {
    "Compound": "CC(=O)N[C@@H](CCC(=O)O)C(=O)O",
    "normalized growth": "1.06 (inactive)"
  },
  {
    "Compound": "CC12CCC3C(=CCc4cc(O)ccc43)C1CCC2=O (stereo not drawn)",
    "normalized growth": "0.618 (inactive)"
  },
  {
    "Compound": "Cc1oncc1C(=O)Nc1ccc(C(F)(F)F)cc1",
    "normalized growth": "0.986 (inactive)"
  },
  {
    "Compound": "O=C1NC2(CCN(Cc3ccccc3)CC2)Oc2ccccc21",
    "normalized growth": "0.918 (inactive)"
  },
  {
    "Compound": "C[C@@H]1CC[C@H]2C(C)(C)C3CC12CC[C@@]3(C)O (stereo partly drawn)",
    "normalized growth": "0.982 (inactive)"
  },
  {
    "Compound": "NC(=O)NC1NC(=O)NC1=O (stereo not drawn)",
    "normalized growth": "0.996 (inactive)"
  }
]

====

- Measurement Description: chemical genetic growth profiling, strain panel (AID 1159580);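 further: tested at 20 µM; growth read once vehicle control cultures reached saturation at 30 °C; 1 = growth at the plate median or of vehicle wells; lower values mean less growth of the strain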
- Condition Info: S. cerevisiae deletion strains, growth OD, locus YPL106C, strain sse1, hits give low values
The whole screen tested about 5,500 compounds, of which about 2,000 (36%) were called active. About 18% were inconclusive and are not listed. The list shows a part of the results.
Recorded Endpoint: normalized growth

[
  {
    "Compound": "C[C@]12CCC3c4ccc(OC(=O)c5ccccc5)cc4CCC3C1CCC2=O (stereo partly specified)",
    "Numeric Value": 0.972
  },
  {
    "Compound": "Clc1ccc(COC(Cn2ccnc2)c2ccc(Cl)cc2Cl)cc1 (stereo unspecified)",
    "Numeric Value": 0.0958
  },
  {
    "Compound": "CC12CCC3C(=CCc4cc(O)ccc43)C1CCC2=O (stereo unspecified)",
    "Numeric Value": 0.992
  },
  {
    "Compound": "Clc1ccc(CO/N=C(/Cn2ccnc2)c2ccc(Cl)cc2Cl)c(Cl)c1",
    "Numeric Value": 0.105
  },
  {
    "Compound": "Clc1ccc(COC(Cn2ccnc2)c2ccc(Cl)cc2Cl)c(Cl)c1 (stereo unspecified)",
    "Numeric Value": 0.128
  },
  {
    "Compound": "CC(=O)Oc1ccc2c(c1)CCC1C2CC[C@]2(C)C(=O)CCC12 (stereo partly specified)",
    "Numeric Value": 1.02
  }
]

====

- Measurement Description: chemical genetic growth profiling, strain panel (AID 1159580);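 further: tested at 20 µM; growth read once vehicle control cultures reached saturation at 30 °C; 1 = growth at the plate median or of vehicle wells; lower values mean less growth of the strain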
- Condition Info: S. cerevisiae deletion strains, growth OD, locus YFR003C, strain YPI1, hits give low values
Out of some 5,500 compounds screened, about 2,000 (36%) were called active. Inconclusive results (about 18%) are left out. The list shows a part of the results.

[
  {
    "Molecule": "O=S(=O)(Nc1cc(Cl)c(Cl)cc1Cl)c1cc(C(F)(F)F)cc(C(F)(F)F)c1",
    "normalized growth": "0.964 (inactive)"
  },
  {
    "Molecule": "O=S(=O)(NCc1ccc(C(F)(F)F)cc1)c1cc(Br)c(Br)s1",
    "normalized growth": "0.974 (inactive)"
  },
  {
    "Molecule": "CC1CCC(C(C)C)C(N(Cc2ccccc2)C(=O)c2ccccc2)C1 (stereo unspecified)",
    "normalized growth": "0.985 (inactive)"
  },
  {
    "Molecule": "CC(C)(C)C1=C(C#N)C(c2c(Cl)cccc2Cl)C(C#N)=C(N)O1 (stereo unspecified)",
    "normalized growth": "0.992 (inactive)"
  },
  {
    "Molecule": "CC1=CC(=O)N(c2ccc(OC(F)(F)F)cc2)C1=O",
    "normalized growth": "0.878 (active)"
  },
  {
    "Molecule": "Cc1ccc(NC(=S)C(C#N)C(=O)N2CCOCC2)c(C)c1 (stereo unspecified)",
    "normalized growth": "0.995 (inactive)"
  },
  {
    "Molecule": "COc1ccc2c(c1)CCc1sc(NC(=O)c3ccco3)nc1-2",
    "normalized growth": "0.964 (inactive)"
  },
  {
    "Molecule": "Clc1ccccc1-c1csc(-c2ccncc2)n1",
    "normalized growth": "0.964 (inactive)"
  },
  {
    "Molecule": "CC1=CC(=O)N(c2ccc(F)c(Cl)c2)C1=O",
    "normalized growth": "0.975 (inactive)"
  },
  {
    "Molecule": "CC1C(c2ccccc2)N(C)C(c2ccccc2)CC1(O)c1ccc(F)cc1 (stereo unspecified)",
    "normalized growth": "0.999 (inactive)"
  },
  {
    "Molecule": "C/C(=N/NC(=S)NCC(C)(C)C)c1cc(F)cc(Cl)c1O",
    "normalized growth": "0.963 (inactive)"
  },
  {
    "Molecule": "O=C(Nc1cc(Cl)ccc1O)c1ccccc1CSc1ccc(Cl)cc1",
    "normalized growth": "0.979 (inactive)"
  },
  {
    "Molecule": "C[C@@H](Nc1ncnc2sc3c(c12)CCCC3)c1ccccc1",
    "normalized growth": "0.958 (inactive)"
  },
  {
    "Molecule": "Clc1cccc(Nc2ncc(-c3ccc4c(c3)OCCCO4)s2)c1",
    "normalized growth": "0.985 (inactive)"
  },
  {
    "Molecule": "Cc1c(S(=O)(=O)Nc2cccc([N+](=O)[O-])c2)sc2ccc(Cl)cc12",
    "normalized growth": "0.98 (inactive)"
  },
  {
    "Molecule": "O=[N+]([O-])c1ccsc1Oc1cccc(C(F)(F)F)c1",
    "normalized growth": "0.984 (inactive)"
  },
  {
    "Molecule": "Clc1ccc(Oc2ccnc3cc(Cl)ccc23)cc1",
    "normalized growth": "0.916 (inactive)"
  },
  {
    "Molecule": "O=S(=O)(NCc1ccc(C(F)(F)F)cc1)c1cccc(C(F)(F)F)c1",
    "normalized growth": "0.983 (inactive)"
  },
  {
    "Molecule": "Clc1cc(Cl)cc(C=NCc2ccccc2)c1",
    "normalized growth": "0.95 (inactive)"
  },
  {
    "Molecule": "FC(F)(F)c1cc(NC(=S)SCCSC(=S)Nc2cc(C(F)(F)F)cc(C(F)(F)F)c2)cc(C(F)(F)F)c1",
    "normalized growth": "0.993 (inactive)"
  },
  {
    "Molecule": "Cn1nccc1-c1cc(Cl)cc(Cl)c1O",
    "normalized growth": "0.961 (inactive)"
  },
  {
    "Molecule": "Cc1ccc(S(=O)(=O)Nc2nc(-c3ccc(C)c(Cl)c3)c(C)s2)cc1",
    "normalized growth": "0.992 (inactive)"
  },
  {
    "Molecule": "O=C(NNc1ccccc1)c1cc(-c2ccc(Cl)cc2)oc1C(F)(F)F",
    "normalized growth": "0.958 (inactive)"
  },
  {
    "Molecule": "Nc1ccccc1C(=O)Nc1cc(C(F)(F)F)cc(C(F)(F)F)c1",
    "normalized growth": "0.984 (inactive)"
  },
  {
    "Molecule": "Clc1ccc(-c2cnc(Nc3cc(Cl)cc(Cl)c3)s2)cc1",
    "normalized growth": "0.97 (inactive)"
  },
  {
    "Molecule": "COc1ccc(-c2csc(-c3cccnc3)n2)cc1",
    "normalized growth": "0.947 (inactive)"
  },
  {
    "Molecule": "CCOC(=O)c1sc(S(C)=NC(=O)Nc2ccc(Cl)cc2)c2c1CCC=C2 (stereo unspecified)",
    "normalized growth": "0.976 (inactive)"
  },
  {
    "Molecule": "COc1ccc(Nc2nc(NC(=O)Nc3ccc(Cl)cc3)n[nH]2)cc1",
    "normalized growth": "0.996 (inactive)"
  },
  {
    "Molecule": "Cc1ccc(-c2nc(NS(=O)(=O)c3cccc4nonc34)sc2C)cc1Cl",
    "normalized growth": "0.965 (inactive)"
  },
  {
    "Molecule": "O=S(=O)(NCc1cc(Cl)cc(Cl)c1)c1cc(C(F)(F)F)cc(C(F)(F)F)c1",
    "normalized growth": "0.996 (inactive)"
  },
  {
    "Molecule": "N#Cc1cccc(CSc2nc3ccc(C(F)(F)F)cc3[nH]2)c1",
    "normalized growth": "0.97 (inactive)"
  }
]
